Data credit: PubChem BioAssay AID652

# testedOn: Gag-Pol polyprotein (Human immunodeficiency virus type 1 group M subtype B (isolate HXB2))
# experimentNotes: HIV-1 RT RNase H inhibitor potency, dose response, biochemical, probe assessment (AID 652)
# conditions: HIV-1 RT RNase H enzymatic assay
Recorded IC50 for the following molecules
propertyLabel: IC50

# smilesData, propertyLabel, observedResult
measured = [
    ("S=C(c1ccc(Cl)cc1)N1CCOCC1", "IC50", "4.01 µM"),
    ("S=C(c1ccc(-c2ccccc2Cl)o1)N1CCOCC1", "IC50", "0.926 µM"),
    ("N#CC1=C(N)SC(N)=C(C#N)C1c1ccnc2ccccc12", "IC50", "13.7 µM"),
    ("S=C(Nc1ccccn1)c1ccccn1", "IC50", "4.96 µM"),
    ("CCOc1cc(C2C(C#N)=C(N)SC(N)=C2C#N)ccc1OCCN1CCOCC1", "IC50", "31.5 µM"),
]

----------
Recorded inhibition for the following molecules
# testedOn: Gag-Pol polyprotein (Human immunodeficiency virus type 1 group M subtype B (isolate HXB2))
# experimentNotes: HIV-1 RT RNase H inhibitor potency, dose response, biochemical, probe assessment (AID 652)
# conditions: HIV-1 RT RNase H enzymatic assay, inhibition, at 50 µM, stronger effect = higher value
propertyLabel: inhibition (%)

# molecule, observedResult
rows = [
    ("COc1ccc(C2C(C#N)=C(N)N3C(=C2C#N)Sc2ccccc23)cc1 (configuration not stated)", 92),
    ("COc1ccc(OC)c(/C=N/c2oc(-c3ccco3)c(-c3ccco3)c2C#N)c1", 89.5),
    ("O=C1CCCC(O)=C1C(C#Cc1ccccc1)C1=C(O)CCCC1=O", 90.9),
    ("N#Cc1c(SCC(=O)Nc2nccs2)nc2c(c1-c1ccco1)CCCC2", 88.9),
    ("CCCCCCn1c(SCC(=O)OC)nc2c1c(=O)[nH]c(=O)n2C", 79.6),
    ("c1ccc(-n2ncc3c2ncn2nc(-c4ccco4)nc32)cc1", 89.8),
    ("Cc1nc(-c2cccc(S(=O)(=O)N3CCOCC3)c2)cs1", 96.4),
    ("CC1CC(C)(C)NC(=S)S1 (configuration not stated)", 66),
    ("COc1ccccc1CNC(=O)c1cc2c(=O)n(C)c3ccccc3c2n1C", 86),
    ("O=C(NC(=O)c1ccc(Cl)cc1)Nc1cc(N2CCCCC2)ncn1", 97.4),
    ("CCCCCn1c(SCCCC)nc2c1c(=O)[nH]c(=O)n2C", 91.1),
    ("CC(C)Cc1cc(C(=O)Nc2sc3c(c2C#N)CCCC3)no1", 94.6),
    ("C=CCOc1ccc(CC2C(=O)N(C)C(=O)N(C)C2=O)cc1", 101),
    ("C=CCOC(=O)C1=C(C)NC(SCC(=O)Nc2ccc(C)c(Cl)c2)=C(C#N)C1c1ccco1 (configuration not stated)", 98.7),
    ("CCN1CCN(c2nc(C)nc3c2sc(=S)n3C)CC1", 76.3),
    ("Nc1c(C(=O)N2CCOCC2)sc(=S)n1-c1ccccc1", 75.2),
    ("COC(=O)c1ccc2c(=O)n(Cc3ccco3)c(SCC(=O)Nc3ccccc3Cl)nc2c1", 92.2),
    ("CC(=O)C(C(C)=O)c1c(Cl)c(O)c(O)c2c(C(=O)c3ccccc3)coc12", 93.1),
    ("CCOC(=O)N1CCc2c(sc3c2C(=O)NC(c2ccc(-c4ccc(Cl)cc4)o2)N3)C1 (configuration not stated)", 94.3),
    ("Cc1cc(-c2nn3c(-c4ccccc4)nnc3s2)c2ccccc2n1", 94.7),
    ("N#Cc1cc(-c2ccccc2)nn1-c1ccccc1", 99.4),
    ("CCCCC(CC)Cn1c2nc3ccccc3nc2c2c(=N)oc(C)nc21 (configuration not stated)", 95.5),
]

----------
Recorded inhibition for the following compounds
# testedOn: Gag-Pol polyprotein (Human immunodeficiency virus type 1 group M subtype B (isolate HXB2)) (UniProt P04585)
# experimentNotes: HIV-1 RT RNase H inhibitor potency, dose response, biochemical, probe assessment (AID 652)
# conditions: HIV-1 RT RNase H enzymatic assay, inhibition, at 50 µM, stronger effect = higher value
propertyLabel: inhibition (%)

# compound, observedResult
measured = [
    ("COCCSc1ccccc1C(=O)Nc1cc(C)on1", 65.1),
    ("C=CCn1c(=O)c(C(=O)Nc2nnc(C)s2)c(O)c2ccccc21", 84.5),
    ("C=CCn1c(N)c(C(=O)NCCC2=CCCCC2)sc1=S", 85.9),
    ("Cc1ccccc1N1C(=O)c2sc3nc4c(c(=O)n3c2C1=O)CCC4", 98.7),
    ("Nc1sc2c(c1C(=O)NC1CCS(=O)(=O)C1)CCC2 (configuration not stated)", 74.5),
    ("C=CCNC(=O)c1c(N)n(-c2ccc3c(c2)OCO3)c2nc3ccccc3nc12", 55.2),
    ("CCOc1cc(C2CC(=O)N3CN(C4CCCCC4)CSC3=C2C#N)ccc1O (configuration not stated)", 85.6),
    ("COC(=O)c1ccccc1S(=O)(=O)N(Cc1cc2cc3c(cc2[nH]c1=O)OCO3)C1CCCCC1", 90.3),
    ("Cc1ccc(-n2sc3ccccc3c2=O)cc1S(=O)(=O)N1CCCCC1", 96.9),
    ("CCOc1cc(C2c3c(oc4cc(C)c(Cl)cc4c3=O)C(=O)N2Cc2ccco2)ccc1O (configuration not stated)", 76.5),
    ("CCOC(=O)c1c(NC(=O)c2cc(C3CC3)on2)sc2c1CCCC2", 97.1),
    ("N#Cc1c(NC(=O)CN2CCN(S(=O)(=O)c3ccc4c(c3)OCCO4)CC2)sc2c1CCC2", 81.9),
    ("Cc1sc(-n2c(C)cc(/C=N/n3cnnc3)c2C)c(C#N)c1C", 89.5),
    ("Cn1ccnc1P(=S)(c1nccn1C)N1CCOCC1", 60),
    ("Cc1nn(CCc2nc(-c3ccco3)cs2)c2[nH]c(=O)cc(C(F)(F)F)c12", 97.6),
    ("COc1ccc(N2CCN(Cc3cc(=O)oc4cc(C)c(Cl)c(C)c34)CC2)cc1", 96),
    ("Cc1cccc(-c2nsc(SCC(=O)Nc3nccs3)n2)c1", 97.3),
]

----------
# testedOn: Gag-Pol polyprotein (Human immunodeficiency virus type 1 group M subtype B (isolate HXB2)) (UniProt P04585)
# experimentNotes: HIV-1 RT RNase H inhibitor potency, dose response, biochemical, probe assessment (AID 652)
# conditions: HIV-1 RT RNase H enzymatic assay, inhibition, at 50 µM, stronger effect = higher value

# smilesData, inhibition, %
records = [
    ("Cc1ccc(-c2cc(C(=O)NC3=NCCS3)c3cc(Br)ccc3n2)o1", 92.4),
    ("C=CCSc1nc2c(cnn2-c2ccc(C)c(C)c2)c(=O)[nH]1", 88.6),
    ("CCOc1ccc(-n2c(=O)c3c4c(sc3n(CC(=O)NCc3ccco3)c2=O)CCC4)cc1", 89.9),
    ("Cc1ccc(NC(=O)CSc2nnc(-c3ccc(S(=O)(=O)N4CCCC4)cc3)o2)cc1C", 88.6),
    ("O=c1ccc2cc3c([nH]c4ccc(Br)cc43)oc-2c1O", 88.5),
    ("Cc1cccc(NC(=O)Cn2c(C)c(C#N)c3ccccc32)c1C", 89),
]
